These data points were gathered from paper PMC5910229.

Biological target: RIM1 C2B (RIM1α C2B domain) (Rattus norvegicus, UniProt Q9JIR4)
Sequence (Q9JIR4 1447-1615): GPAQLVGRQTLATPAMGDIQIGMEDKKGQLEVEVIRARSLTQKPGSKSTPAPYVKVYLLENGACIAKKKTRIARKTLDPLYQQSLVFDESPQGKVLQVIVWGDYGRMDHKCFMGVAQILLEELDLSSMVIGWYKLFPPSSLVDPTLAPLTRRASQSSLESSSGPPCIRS
pKd: −log10 of the molar value.
measurement kind: pKd

Sample CCCC(=O)OC[C@H](COP(=O)(O)O[C@@H]1[C@H](O)[C@H](O)[C@@H](OP(=O)(O)O)[C@H](OP(=O)(O)O)[C@H]1O)OC(=O)CCC — what was its pKd?
4.10 to 4.49
